# ASSAYED TARGET: Toll-like receptor 4 (Rattus norvegicus) (UniProt Q9QX05)
# Sequence (whole entry): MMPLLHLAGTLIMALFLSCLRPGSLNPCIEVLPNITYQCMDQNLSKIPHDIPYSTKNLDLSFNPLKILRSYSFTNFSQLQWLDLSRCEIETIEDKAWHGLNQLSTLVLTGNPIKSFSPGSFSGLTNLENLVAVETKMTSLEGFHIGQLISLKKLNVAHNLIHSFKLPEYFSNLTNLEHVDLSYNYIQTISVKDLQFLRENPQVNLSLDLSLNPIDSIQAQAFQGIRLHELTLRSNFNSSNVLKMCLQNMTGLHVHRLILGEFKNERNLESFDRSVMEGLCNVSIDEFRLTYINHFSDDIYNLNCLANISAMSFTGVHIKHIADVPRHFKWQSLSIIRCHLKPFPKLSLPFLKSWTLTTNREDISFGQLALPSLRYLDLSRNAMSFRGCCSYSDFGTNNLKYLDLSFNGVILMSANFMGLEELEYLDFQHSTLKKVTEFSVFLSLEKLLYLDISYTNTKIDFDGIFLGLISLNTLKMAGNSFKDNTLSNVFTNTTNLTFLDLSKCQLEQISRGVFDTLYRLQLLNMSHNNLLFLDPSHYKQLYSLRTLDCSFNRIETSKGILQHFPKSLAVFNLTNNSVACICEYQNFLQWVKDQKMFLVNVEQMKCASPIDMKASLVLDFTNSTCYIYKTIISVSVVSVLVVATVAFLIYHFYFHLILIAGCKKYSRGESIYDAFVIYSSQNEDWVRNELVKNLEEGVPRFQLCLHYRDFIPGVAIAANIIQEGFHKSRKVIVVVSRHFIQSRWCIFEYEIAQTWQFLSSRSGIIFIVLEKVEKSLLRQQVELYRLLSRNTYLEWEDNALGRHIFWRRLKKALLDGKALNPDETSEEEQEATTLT
# METHOD SUMMARY: Inhibition of TLR4 in Sprague-Dawley rat cardiomyocytes assessed as reduction in hypoxia-induced creatine kinase levels preincubated for 1 hr followed by hypoxia for 3 hrs by NADP reduction based colorimetric analysis
# Type: cell-based
Activity calls are given as the source filed them. No cut-off for these calls is given here. Where a SMILES comes first, the peptide text is derived from it.
Could you please pick one outcome from this set? yes (1) for active, no (0) for inactive

Some solved cases for reference:
| COMPOUND | CAT |
| --- | --- |
| CSCC[C@H](NC(=O)[C@H](CCC(=O)O)NC(=O)[C@H](C)NC(C)=O)C(=O)N1CCC[C@H]1C(N)=O (Ac-AEMP-NH2) | yes (1) |
| CC[C@H](C)[C@H](NC(C)=O)C(=O)N[C@@H](Cc1ccccc1)C(=O)N[C@@H](C)C(N)=O (Ac-Ile-Phe-Ala-NH2) | no (0) |

query: Check the results log: what was the call for `CCOc1nc(=O)n(Cc2ccc3ccccc3c2)cc1C` ?
result: no (0)

query: # lookup: test call for CC(=O)N[C@@H](Cc1ccccc1)C(=O)N[C@@H](C)C(=O)N[C@@H](CCC(=O)O)C(N)=O (Ac-Phe-Ala-Glu-NH2)
result: no (0)

query: Please indicate how the test categorized `CCOc1nc(=O)n(Cc2ccc(C(F)(F)F)cc2)cc1C` .
result: no (0)

query: Recorded call for `CCCCCCCCCCNc1nc(=O)n(Cc2ccccc2)cc1C` ?
result: no (0)

query: I would be grateful if you could indicate the recorded call for CC[C@H](C)[C@H](NC(C)=O)C(=O)N[C@H](C(=O)N[C@@H](Cc1ccccc1)C(=O)N[C@@H](C)C(N)=O)C(C)C (Ac-IVFA-NH2) .
result: yes (1)

query: Dear all, I need the recorded test outcome for `Cc1cn(Cc2ccccc2)c(=O)nc1NCc1ccccc1` , thank you.
result: no (0)
